# test-system: human P2X2/3 (heteromeric P2X2/3 channels) (Homo sapiens, UniProt P56373+Q9UBL9)
# Construct: expressed in transfected cells; host or cells: 1321N1 human astrocytoma cells (1321N1-hP2X2/3)
# Sequence (P56373 whole entry): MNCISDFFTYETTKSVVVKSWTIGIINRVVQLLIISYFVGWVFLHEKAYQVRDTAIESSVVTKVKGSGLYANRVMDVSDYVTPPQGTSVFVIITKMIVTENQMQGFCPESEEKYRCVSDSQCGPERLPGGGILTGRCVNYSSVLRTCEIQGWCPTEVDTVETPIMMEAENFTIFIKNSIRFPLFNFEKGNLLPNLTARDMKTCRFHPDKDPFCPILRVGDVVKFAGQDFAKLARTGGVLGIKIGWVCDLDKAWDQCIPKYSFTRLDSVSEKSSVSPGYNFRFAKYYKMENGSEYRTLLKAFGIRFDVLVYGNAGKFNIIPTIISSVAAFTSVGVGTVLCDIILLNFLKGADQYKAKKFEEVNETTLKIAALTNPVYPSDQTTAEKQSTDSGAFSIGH
# Sequence (Q9UBL9 whole entry): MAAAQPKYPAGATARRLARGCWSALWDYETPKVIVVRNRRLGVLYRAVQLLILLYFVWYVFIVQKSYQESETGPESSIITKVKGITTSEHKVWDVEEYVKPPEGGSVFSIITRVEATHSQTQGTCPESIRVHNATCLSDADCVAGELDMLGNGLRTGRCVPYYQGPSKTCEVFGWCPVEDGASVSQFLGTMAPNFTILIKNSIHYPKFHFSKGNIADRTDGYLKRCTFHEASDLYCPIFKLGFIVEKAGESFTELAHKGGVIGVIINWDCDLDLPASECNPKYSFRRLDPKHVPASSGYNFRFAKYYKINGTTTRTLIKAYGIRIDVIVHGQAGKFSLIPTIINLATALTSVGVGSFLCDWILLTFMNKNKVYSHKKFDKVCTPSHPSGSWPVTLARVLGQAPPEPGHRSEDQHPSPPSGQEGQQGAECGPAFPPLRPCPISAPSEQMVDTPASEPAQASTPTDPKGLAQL
# test-details: FlexStation calcium fluorescence assay, heteromeric P2X2/3 channels in 1321N1 cells
# Assay type: cell-based
# condition-parameters: 1321N1 cells, hP2X2/3; agonist 3 μM ATP; highest concentration tested is 10 μM; read-out: Average pIC50 P2X2/3 (converted)
Would you mind telling me the reported IC50 of each entry?
Please state the figure in µM; there is no need to write the unit.

Record COc1cc(Oc2cnc(NC(CO)CO)nc2N)c(C(C)C)cc1OC , field IC50: 0.631

Record COc1cc(Oc2cnc(N)nc2NCc2ccccc2)c(C(C)C)cc1OC , field IC50: 3.16

Record COc1cc(Oc2cnc(NCCO)nc2N)c(C(C)C)cc1OC , field IC50: 1.58

Record C#Cc1cc(Sc2cnc(N)nc2N)c(C(C)C)cc1OC , field IC50: 3.98

Record COc1cc(Oc2cnc(NC3CCC3)nc2N)c(C(C)C)cc1OC , field IC50: 0.501

Record COc1cc(Oc2cnc(N)nc2NCCN(C)C)c(C(C)C)cc1OC , field IC50: 2.51

Record COc1cc(Oc2cnc(NCC(C)C)nc2N)c(C(C)C)cc1OC , field IC50: 2.51
